Provide the recorded Ki for the entries that follow.
# Test target: Adenosine receptor A3 (Homo sapiens)
# Sequence (P0DMS8 whole entry): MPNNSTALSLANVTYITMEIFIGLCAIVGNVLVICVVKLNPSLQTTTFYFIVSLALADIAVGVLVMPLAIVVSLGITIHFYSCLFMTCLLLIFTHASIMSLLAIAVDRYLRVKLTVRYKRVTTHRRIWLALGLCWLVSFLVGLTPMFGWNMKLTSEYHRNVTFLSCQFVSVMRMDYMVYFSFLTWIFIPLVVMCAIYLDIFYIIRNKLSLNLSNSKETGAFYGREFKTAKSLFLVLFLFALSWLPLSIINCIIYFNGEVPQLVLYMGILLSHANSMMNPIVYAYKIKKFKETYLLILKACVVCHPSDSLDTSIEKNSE
# Test summary: Displacement of [3H]NECA from adenosine A3 receptor in human HeLa cells after 180 mins

Q: # get_value(readout='Ki', item= CCOC(=O)C1=C(C)NC(=O)NC1c1ccsc1 (racemic) )
Result: > 10 µM

Q: # get_value(readout='Ki', item= CC1=C(C(=O)OC(C)C)C(c2ccco2)NC(=S)N1 (racemic) )
Result: > 10 µM

====

# Test target: Adenosine receptor A2a (Homo sapiens, UniProt P29274)
# Sequence (P29274 whole entry): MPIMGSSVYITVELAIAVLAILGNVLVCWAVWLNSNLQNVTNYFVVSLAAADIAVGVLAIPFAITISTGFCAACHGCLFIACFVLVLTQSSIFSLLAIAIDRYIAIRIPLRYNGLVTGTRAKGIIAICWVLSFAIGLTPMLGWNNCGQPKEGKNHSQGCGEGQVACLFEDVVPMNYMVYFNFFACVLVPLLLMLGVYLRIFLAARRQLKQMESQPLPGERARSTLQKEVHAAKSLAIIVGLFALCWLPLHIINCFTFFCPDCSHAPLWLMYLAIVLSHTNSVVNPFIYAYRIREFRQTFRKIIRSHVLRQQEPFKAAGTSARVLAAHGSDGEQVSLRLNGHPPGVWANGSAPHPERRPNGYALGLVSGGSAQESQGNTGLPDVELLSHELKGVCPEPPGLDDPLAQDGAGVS
# Test summary: Displacement of [3H]ZM241385 from adenosine A2A receptor in human HeLa cells at 10 uM after 30 mins
# Assay type: cell-based
inhibition of 20% or higher: Yes. Under 20%: No.

Q: Entry CC1=C(C(=O)OC(C)C)C(c2ccco2)NC(=O)N1 (racemic) : is its inhibition no less than 20%?
Result: Yes

Q: Entry CCOC(=O)C1=C(C)N(C)C(=O)NC1c1ccoc1 (racemic) : is its inhibition no less than 20%?
Result: Yes

Q: Entry CCOC(=O)C1=C(C)NC(=O)N(C(C)=O)C1c1ccco1 (racemic) : is its inhibition no less than 20%?
Result: Yes

Q: Entry COC(=O)C1=C(C)NC(=O)NC1c1ccco1 (racemic) : is its inhibition no less than 20%?
Result: Yes

Q: Entry CCOC(=O)C1=C(CC)NC(=O)NC1c1ccco1 (racemic) : is its inhibition no less than 20%?
Result: Yes

Q: Entry CC1=C(C(N)=O)C(c2ccco2)NC(=O)N1 (racemic) : is its inhibition no less than 20%?
Result: No

Q: Entry CCOC(=O)C1=C(C)NC(=S)NC1c1ccoc1 (racemic) : is its inhibition no less than 20%?
Result: Yes

Q: Entry CC1=C(C(=O)OC(C)C)C(c2cccs2)NC(=O)N1 (racemic) : is its inhibition no less than 20%?
Result: No

Q: Entry CCOC(=O)C1=C(C)N=C(S)NC1c1ccco1 (racemic) : is its inhibition no less than 20%?
Result: Yes

Q: Entry CCOC(=O)C1=C(C)N(C)C(=O)NC1c1ccco1 (racemic) : is its inhibition no less than 20%?
Result: No
